- assay method text: Quantitative High-Throughput drug screen in 47 multiple myeloma cell lines against the NCATS MIPE library collection: AMO1_DSMZ cell viability assay (AID 1918927; also: nearly all actives have a fitted effect of over 30% in size; also: potency is read from the fitted curve at half-maximal effect)
- recorded conditions: AMO1 myeloma cells viability, CellTiter-Glo ATP luminescence, 48 h; series mostly up to 45.8 µM
Inconclusive results are not listed. Calls of active or inactive are those of the source. Calls follow the shape of the dose curve; as a rule, active = well fitted cell-killing curve with a large enough effect; inconclusive = small, poorly fitted or top-dose-only effect, or effect the other way; inactive = no such curve, though single readings can be large or run the other way.
observation type: Potency

// known answers, use as guide
Measured Potency of CC(=O)Oc1ccccc1C(=O)Nc1ncc([N+](=O)[O-])s1 : 13.6 µM (active)

Documented Potency of O=C(O)C1CCCN(CCC=C(c2ccccc2)c2ccccc2)C1 (centres undefined) : inactive

// sample O=C(O)c1cc(=O)[nH]c(=O)[nH]1 , its Potency was inactive

Kindly note the recorded Potency for C[C@]12C=CC(=O)C=C1CC[C@@H]1[C@@H]2C(=O)C[C@@]2(C)[C@H]1CC[C@]2(O)C(=O)CO , which is inactive

Per the records, this compound ( CNNCc1ccc(C(=O)NC(C)C)cc1 ) has Potency equal to inactive

More entries:
GET /value?item= COc1ccccc1OCC(O)COC(N)=O (centres undefined) &field=Potency returns inactive

Just so you know, measured Potency for Nc1[nH]c(=O)ncc1F came out at 4.69 µM (active)

Potency reading for CCCc1cc(C(N)=S)ccn1 : inactive

Quick note, Potency for CCN1CCCC1CNC(=O)c1cc(S(N)(=O)=O)ccc1OC (centres undefined) landed at inactive

Potency measured on Cc1noc(NS(=O)(=O)c2ccc(N)cc2)c1C = inactive

// Potency value for CCOCC(O)COc1ccc(NC(=O)CC[S+](C)C)cc1 (centres undefined) : inactive

Noted for C[C@@H]1CN(c2c(F)c(N)c3c(=O)c(C(=O)O)cn(C4CC4)c3c2F)C[C@H](C)N1 : its Potency reads inactive

Kindly note the recorded Potency for CCOC(=O)c1ccc(OC(=O)CCCCCN=C(N)N)cc1 , which is inactive

Measured Potency, O[C@@H](CNC[C@H](O)[C@H]1CCc2cc(F)ccc2O1)[C@@H]1CCc2cc(F)ccc2O1 : 26.4 µM (active)

The recorded Potency for entry CC1CC2C3CCC4=CC(=O)C=C[C@]4(C)[C@@]3(F)[C@@H](O)C[C@]2(C)[C@@]1(O)C(=O)CO (some centres undefined) equals 0.833 µM (active)

Recorded result, CCc1c2c(nc3ccc(OC(=O)N4CCC(N5CCCCC5)CC4)cc13)-c1cc3c(c(=O)n1C2)COC(=O)[C@]3(O)CC , Potency: 1.32 µM (active)

response.value for NC1(c2ccc(-c3nc4ccn5c(=O)[nH]nc5c4cc3-c3ccccc3)cc2)CCC1 (field: Potency) = 3.72 µM (active)

---

- assay method text: P-glycoprotein substrates identified in KB-8-5-11 adenocarcinoma cell line, qHTS therapeutic library screen (AID 1346987); also: nearly all actives have a fitted effect of over 65% in size
- recorded conditions: KB-8-5-11 (P-gp overexpressing) viability, CellTiter-Glo, 72 h; series mostly up to 44.5 µM
- Method: The ATP-binding cassette transporters P-glycoprotein (P-gp) is known to limit brain penetration of many chemotherapy drugs. […] All cell lines were plated into 1536-well plates at 500 cells/well in 5 uL media. […] CellTiter-Glo reagent (Promega) was dispensed into the wells, incubated for 5 min and luminescence was read on a ViewLux instrument (Perkin-Elmer). […]
Results filed as inconclusive are left out. The source made the active and inactive calls. The call rests on the fitted dose curve; in most records, active means well fitted inhibition curve with a large enough effect; inconclusive means small, poorly fitted or top-dose-only effect; inactive means flat fitted curve, though single readings scatter.
Select the correct class. Options are 1.0 (active), 0.0 (inactive) and nothing else.

**Query** What classification did O=C(O)c1cccnc1 end up with in this test?
**Result** 0.0

**Query** Identify the outcome logged in this assay for the compound shown: Cc1oc(=O)oc1CN1CCN(c2cc3c(cc2F)c(=O)c(C(=O)O)c2n3C(C)S2)CC1 (stereo not given)
**Result** 0.0

**Query** Could you please tell me the result logged for CNS(=O)(=O)Cc1ccc2[nH]cc(CCN(C)C)c2c1 in this assay?
**Result** 0.0

Next:
**Query** Kindly provide the recorded test outcome for the following compound: CNS(=O)(=O)CCc1ccc2[nH]cc(C3CCN(C)CC3)c2c1
**Result** 0.0

**Query** Could you check what this test reported for CC[C@H](C)C(=O)O[C@H]1C[C@@H](C)C=C2C=C[C@H](C)[C@H](CC[C@@H]3C[C@@H](O)CC(=O)O3)[C@H]21 ?
**Result** 1.0
